system: cyno FRα; test: HTRF antigen (IgG) binding assay; set-up: species or system cynomolgus monkey; details: hybridoma supernatant, 1 nM biotinylated antigen; binder >30% delta F
Sequence (as listed by the source): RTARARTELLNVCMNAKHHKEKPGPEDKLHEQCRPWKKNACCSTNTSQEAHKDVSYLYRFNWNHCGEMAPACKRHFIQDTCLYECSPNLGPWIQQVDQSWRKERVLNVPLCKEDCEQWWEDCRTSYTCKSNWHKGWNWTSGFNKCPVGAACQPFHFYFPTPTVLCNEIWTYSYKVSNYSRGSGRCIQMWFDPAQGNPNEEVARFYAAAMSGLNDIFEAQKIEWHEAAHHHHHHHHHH
Measurement type: HTRF IgG binding assay (% Delta F) Cyno FRα

{"Molecule": "AB1370026: anti-FRα fully human IgG1 antibody; VH SEQ ID NO: 39, VL SEQ ID NO: 40 (antibody, V domains shown) VH: EVQLVESGGGLVKPGGSLRLSCAASGFTFSSYAMSWVRQAPGKGLEWVSSISSGRSYIYYADSVKGRFTISRDNAKNSLYLKMNSLRDEDTAVYYCAREMQQLALDYWGQGTLVTVSS VL: DIQMTQSPSSLSASVGDRVTITCRASQGISNFLAWFQQAPGKAPKSLIYAASSLQSGVPSKFSGSGSGTDFTLTISSLQPEDFATYYCQQYNSYPFTFGQGTKLEIK", "Recorded value": "213.68 % Delta F"}
{"Molecule": "AB1370083: anti-FRα fully human IgG1 antibody; VH SEQ ID NO: 43, VL SEQ ID NO: 44 (antibody, V domains shown) VH: EVQLVESGGGLVKPGGSLRLSCAASGFTFSSYNMNWVRQAPGKGLEWVSSISSGSSYIYYADSMKGRFTISRDNAKNSLFLQMNSLRAEDTAVYYCARGMTTLTFDYWGQGTLVTVSS VL: DIQMTQSPSSLSASVGDRVTITCRASQGISTFLAWFQQKPGKAPKSLIYAASSLQSGVPSKFSGSGSETDFTLTISSLQPEDFATYYCQQYISYPLTFGGGTKVEIK", "Recorded value": "85.16 % Delta F"}
{"Molecule": "AB1370095: anti-FRα fully human IgG1 antibody; VH SEQ ID NO: 45, VL SEQ ID NO: 46 (antibody, V domains shown) VH: EVQLVESGGGLVKPGGSLRLSCAASGFTFSSYSMNWVRQAPGKGLEWVSSISSRSSYVYYADSVKGRFTISRDNAKNSLYLQMNSLRAEDTAVYYCARGMTTLTFDYWGQGTLVTVSS VL: DIQMTQSPSSLSASVGDRVTITCRASQGISSFLAWFQQKPGKAPKSLIYAASSLQSGVPSKFSGSGSGTDFTLTISSLQPEDFATYYCQQYNSYPLTFGGGTKVEIK", "Recorded value": "85.33 % Delta F"}
